- Assayed system: Cytochrome P450 3A4 (Homo sapiens, UniProt P08684);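 also: confirmatory qHTS run detecting inhibitors and substrates of CYP3A4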
- Sequence (P08684 whole entry): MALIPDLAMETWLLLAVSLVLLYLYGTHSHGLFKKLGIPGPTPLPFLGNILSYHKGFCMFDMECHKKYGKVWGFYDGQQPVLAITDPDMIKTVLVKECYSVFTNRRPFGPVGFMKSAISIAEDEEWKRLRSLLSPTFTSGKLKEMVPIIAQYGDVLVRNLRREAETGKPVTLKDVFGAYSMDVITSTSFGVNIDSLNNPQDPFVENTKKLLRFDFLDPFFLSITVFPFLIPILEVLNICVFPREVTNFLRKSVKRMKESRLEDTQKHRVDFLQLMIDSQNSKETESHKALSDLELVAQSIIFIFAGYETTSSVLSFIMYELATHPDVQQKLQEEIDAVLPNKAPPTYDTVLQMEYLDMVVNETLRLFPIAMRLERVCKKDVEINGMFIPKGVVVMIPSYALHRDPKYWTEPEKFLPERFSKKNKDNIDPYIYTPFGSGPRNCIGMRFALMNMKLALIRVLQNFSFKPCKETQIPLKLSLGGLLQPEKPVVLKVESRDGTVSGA
- Condition set: Potency
Readout type: AC50

Q: Data request, read-out AC50, for CCC(=O)/C=C/C1C(C)=CCCC1(C)C (stereo unspecified)
Ans: 31.6 µM (inconclusive)

Q: Data request, read-out AC50, for "CN1CCc2cc3c(cc2C(=O)Cc2ccc4c(c2C1)OCO4)OCO3"
Ans: 25.1 µM (inconclusive)

Q: Data request, read-out AC50, for C[C@]12CC[C@H](O)C[C@@H]1CC[C@@H]1[C@@H]2CC[C@]2(C)C(=O)CC[C@@H]12 [EPIANDROSTERONE]
Ans: 20 µM (inconclusive)

Q: Data request, read-out AC50, for "Cc1ncc(CN2CC=C(c3ccccc3)CC2)c(N)n1"
Ans: 25.1 µM (inconclusive)

Q: Data request, read-out AC50, for CC1OC(=O)C(C(C)C)NC(=O)C(C(C)C)OC(=O)C(C(C)C)NC(=O)C(C)OC(=O)C(C(C)C)NC(=O)C(C(C)C)OC(=O)C(C(C)C)NC(=O)C(C)OC(=O)C(C(C)C)NC(=O)C(C(C)C)OC(=O)C(C(C)C)NC1=O (stereo unspecified)
Ans: 12.6 µM (inconclusive)

Q: Data request, read-out AC50, for "C=CC(=O)OCCCCCCOC(=O)C=C"
Ans: 25.1 µM (inconclusive)
